# assay text: Mouse PK test of peptides (intravenous and oral administration)
# conditions: male, C57BL/6J, in vivo, iv, 20 mg/kg
Positions of bridges follow the written chain, without caps; N, C: chain ends. Non-standard residues stand in square brackets, D forms with d. Residues, ends and D or L forms follow the SMILES beside them. *: point of attachment. NMeF = CN[C@@H](Cc1ccccc1)C(=O)O; NMeI = CC[C@H](C)[C@H](NC)C(=O)O; NMeL = CN[C@@H](CC(C)C)C(=O)O; NMeA = CN[C@@H](C)C(=O)O; Piperidide = C1CCN(*)CC1; NPrGly = CCCNCC(=O)O; Sar = CNCC(=O)O; tBu = CC(C)(C)*
reported metric: AUC
// unit must come after the numeric part

// solved cases for AUC follow
{"compound": "CC[C@H](C)[C@H](NC(=O)[C@@H]1CCCN1C(=O)[C@@H]1CC(=O)N[C@@H](C)C(=O)N[C@@H](CC(C)C)C(=O)N(C)[C@@H]([C@@H](C)CC)C(=O)N[C@@H](C(C)C)C(=O)N(C)[C@@H](Cc2ccccc2)C(=O)N[C@@H](CC(C)C)C(=O)N(C)[C@@H](Cc2ccccc2)C(=O)N1)C(=O)N1CCCCC1 [DP-965] (AL[NMeI]V[NMeF]L[NMeF]DPI-Piperidide; lactam N-8)", "AUC": "193000 ng·h/mL"}
{"compound": "CC[C@H](C)[C@H]1C(=O)N[C@H](C(=O)N2CCCCC2)CC(=O)N[C@H](C(C)C)C(=O)N(C)[C@@H](Cc2ccccc2)C(=O)N(C)[C@@H](CC(C)C)C(=O)N[C@@H]([C@@H](C)O)C(=O)N(C)CC(=O)N(C)[C@@H](CC(C)C)C(=O)N[C@@H](COC(C)(C)C)C(=O)N1C [DP-265] ([dV][NMeF][NMeL]T[Sar][NMeL]S(tBu)[NMeI]D-Piperidide; lactam N-9)", "AUC": "35300 ng·h/mL"}
{"compound": "CCCN1CC(=O)N(C)[C@@H](CC(C)C)C(=O)N[C@@H](COC(C)(C)C)C(=O)N(C)[C@@H](CC(C)C)C(=O)N[C@H](C(=O)N2CCCCC2)CC(=O)N[C@H](C)C(=O)N(C)[C@@H](C)C(=O)N(C)[C@@H](Cc2ccccc2)C(=O)N(C)[C@@H](CC(C)C)C(=O)N[C@@H]([C@@H](C)O)C1=O [DP-547] ([dA][NMeA][NMeF][NMeL]T[NPrGly][NMeL]S(tBu)[NMeL]D-Piperidide; lactam N-10)", "AUC": "37200 ng·h/mL"}
{"compound": "CC(C)C[C@@H]1NC(=O)[C@H](Cc2ccccc2)N(C)C(=O)[C@H](Cc2ccccc2)N(C)C(=O)[C@H](CC(C)C)NC(=O)[C@H](C)N(C)C(=O)[C@H]([C@@H](C)O)NC(=O)[C@H](C)N(C)C(=O)C[C@@H](C(=O)N2CCCCC2)NC(=O)[C@H](CC(C)C)N(C)C1=O [DP-125] ([NMeA]T[NMeA]L[NMeF][NMeF]L[NMeL]D-Piperidide; lactam N-9)", "AUC": "35400 ng·h/mL"}

The record that follows has no AUC shown yet.
Consider the compound CCCN1CC(=O)N(C)[C@@H](CC(C)C)C(=O)N[C@@H]([C@@H](C)O)C(=O)N(C)[C@@H](C)C(=O)N(C)[C@@H](CC(C)C)C(=O)N(C)[C@@H]([C@@H](C)CC)C(=O)N[C@@H](COC(C)(C)C)C(=O)N[C@H](C(=O)N2CCCCC2)CC(=O)N(C)[C@@H](C)C(=O)N(C)[C@@H](Cc2ccccc2)C1=O [DP-540] ([NMeA][NMeF][NPrGly][NMeL]T[NMeA][NMeL][NMeI]S(tBu)D-Piperidide; lactam N-10) and give its recorded AUC.
41400 ng·h/mL
